System: H9c2;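 also: cell death induced by hydrogen peroxide oxidative stress; compound pretreatment for 60 min then peroxide exposure for 2 h; potency is for protecting the cells against peroxide damage rather than for killing them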;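 also: confirmatory concentration-response retest of ultra-high-throughput screening hits for modulation of myocardial damage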
Test: cells
Type: functional, cell-based
Conditions: Rattus norvegicus, H9c2, Myocardium
Calls of active or inactive are those of the source.
Labels: active, inactive

smiles_str=COc1cccc(-c2ccc(SCC(=O)N3CCN(c4ccccc4)CC3)nn2)c1 assayed_system=H9c2 assigned_label=active
smiles_str=CCCCOc1ccc(C(=O)NCC(=O)N(C)Cc2nc(O)c3ccccc3n2)cc1 assayed_system=H9c2 assigned_label=inactive
smiles_str=COCCCNC(=O)/C(C#N)=C1\N=C(NC(=O)c2cccs2)c2ccccc21 assayed_system=H9c2 assigned_label=inactive
smiles_str=O=C(CNC(=O)c1ccccc1F)N/N=C/c1cc(Br)ccc1OC(=O)/C=C/c1ccco1 assayed_system=H9c2 assigned_label=inactive
smiles_str=COc1ccc(-c2nc(NC(=O)c3ccc(OCC(=O)N4CCOCC4)c(OC)c3)sc2C)cc1 assayed_system=H9c2 assigned_label=inactive

====

Target: UniProtKB P10520
Sequence (P10520 whole entry): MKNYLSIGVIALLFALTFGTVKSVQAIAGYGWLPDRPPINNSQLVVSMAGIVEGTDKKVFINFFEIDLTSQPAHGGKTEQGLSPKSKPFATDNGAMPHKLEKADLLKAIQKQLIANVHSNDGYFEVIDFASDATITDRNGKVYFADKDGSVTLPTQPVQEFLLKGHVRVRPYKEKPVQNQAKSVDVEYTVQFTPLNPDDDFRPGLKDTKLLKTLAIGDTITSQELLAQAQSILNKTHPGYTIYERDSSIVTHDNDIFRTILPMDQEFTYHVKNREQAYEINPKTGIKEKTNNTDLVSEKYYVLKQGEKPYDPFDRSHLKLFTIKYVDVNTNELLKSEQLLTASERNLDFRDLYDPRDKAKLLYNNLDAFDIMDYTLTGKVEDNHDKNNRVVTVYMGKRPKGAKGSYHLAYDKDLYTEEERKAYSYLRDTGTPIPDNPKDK
Test: S. pyogenes streptokinase expression inhibitors, potency, dose response, plasminogen activation absorbance, OD405 (AID 1914);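 also: secreted streptokinase activity via plasminogen activation per viability signal from cell pellet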
Assay type: functional, Streptococcus pyogenes M1 GAS
The source made the active and inactive calls.
Measurement name: EC50

compound=O=C(NC(=S)Nc1cccc(Cl)c1N1CCCCC1)c1ccc2c(c1)OCCO2 measurement_name=EC50 obs_value="48 µM (active)"
compound=O=C(N/N=C/c1ccc([N+](=O)[O-])o1)c1ccc(NS(=O)(=O)c2cccs2)cc1 measurement_name=EC50 obs_value="> 150 µM (not active)"
compound=Cc1ccc2nc(-c3ccc(NC(=O)CNC4CC4)cc3)sc2c1 measurement_name=EC50 obs_value="> 150 µM (not active)"
compound=O=[N+]([O-])c1ccc(Cl)cc1Sc1nc2ccccc2o1 measurement_name=EC50 obs_value="6.18 µM (active)"
compound=Nc1nc(Nc2cccc(Cl)c2)nc(NCc2ccco2)c1[N+](=O)[O-] measurement_name=EC50 obs_value="> 150 µM (not active)"
compound=O=S(=O)(Nc1ccc(O)c(Sc2nc3ccccc3s2)c1)c1cccc2ccccc12 measurement_name=EC50 obs_value="> 150 µM (not active)"
compound=CCCSc1nsc(NC(=O)Nc2ccc(F)cc2F)n1 measurement_name=EC50 obs_value="54.8 µM (inconclusive)"
compound=CC/C(=C/c1ccccc1)c1cccc2[nH]c3c(OC)cccc3c12 measurement_name=EC50 obs_value="19.6 µM (active)"
compound=Cc1ccc(NC(S)=NN=C(S)Nc2cccc(C(F)(F)F)c2)cc1 measurement_name=EC50 obs_value="> 150 µM (not active)"
compound="COc1ccc(OC)c(C2C=C(C34CC5CC(CC(C5)C3)C4)N=C(S)N2)c1 (stereo not given)" measurement_name=EC50 obs_value="14.7 µM (active)"

====

Target: UniProt Q9HC16
Sequence (Q9HC16 whole entry): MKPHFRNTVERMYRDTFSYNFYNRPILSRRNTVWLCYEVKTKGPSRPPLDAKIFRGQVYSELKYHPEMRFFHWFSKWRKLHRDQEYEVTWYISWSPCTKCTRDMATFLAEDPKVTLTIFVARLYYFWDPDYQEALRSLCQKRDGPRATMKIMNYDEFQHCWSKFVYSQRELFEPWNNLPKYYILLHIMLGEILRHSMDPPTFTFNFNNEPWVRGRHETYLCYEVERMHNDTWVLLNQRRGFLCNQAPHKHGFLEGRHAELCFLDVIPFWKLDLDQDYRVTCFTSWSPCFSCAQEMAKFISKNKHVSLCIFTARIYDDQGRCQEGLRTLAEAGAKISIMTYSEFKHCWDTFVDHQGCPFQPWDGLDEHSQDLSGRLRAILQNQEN
Assay type: functional
Calls of active or inactive are those of the source.
Measurement name: IC50

compound=CCOC(=O)/C(CCCN(CC)CC)=N\O assayed_system="UniProt Q9HC16" measurement_name=IC50 obs_value="1.26 µM (active)"
compound=Nn1c(SCC(=O)Nc2ccc3c(c2)OCCO3)nnc(CCC(=O)O)c1=O assayed_system="UniProt Q9HC16" measurement_name=IC50 obs_value="8.47 µM (active)"
compound="CCN1CCN(c2ccc(S(=O)(=O)N3CCOCC3)cc2NC(=O)C(C)Oc2ccc(Cl)cc2)CC1 (centres undefined)" assayed_system="UniProt Q9HC16" measurement_name=IC50 obs_value="14.7 µM (active)"
compound=CN1CCCN(S(=O)(=O)c2ccccc2)CC1 assayed_system="UniProt Q9HC16" measurement_name=IC50 obs_value="5.93 µM (active)"

====

Assay: cells
Format: functional
The source made the active and inactive calls.
Measurement name: IC50

smiles_str=O=C(Oc1ccccc1)c1cc2ccccc2o1 obs_value="18.4 µM (active)"
smiles_str=Cc1ccccc1N1CCN(Cc2ccc([N+](=O)[O-])o2)CC1 obs_value="0.73 µM (active)"
smiles_str=O=C(Oc1ccccc1)c1ccc(COC(=O)c2cnccn2)cc1 obs_value="6.29 µM (active)"
smiles_str=O=C(NCC1CCN(c2ccc(S(=O)(=O)N3CCOCC3)cc2)CC1)c1ccc(Cl)cc1 obs_value="31.3 µM (active)"

====

Biological target: Cytochrome P450 1A2 (Homo sapiens, UniProt P05177);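 also: PubChem cytochrome P450 panel assay, CYP1A2 panel member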
Sequence (P05177 whole entry): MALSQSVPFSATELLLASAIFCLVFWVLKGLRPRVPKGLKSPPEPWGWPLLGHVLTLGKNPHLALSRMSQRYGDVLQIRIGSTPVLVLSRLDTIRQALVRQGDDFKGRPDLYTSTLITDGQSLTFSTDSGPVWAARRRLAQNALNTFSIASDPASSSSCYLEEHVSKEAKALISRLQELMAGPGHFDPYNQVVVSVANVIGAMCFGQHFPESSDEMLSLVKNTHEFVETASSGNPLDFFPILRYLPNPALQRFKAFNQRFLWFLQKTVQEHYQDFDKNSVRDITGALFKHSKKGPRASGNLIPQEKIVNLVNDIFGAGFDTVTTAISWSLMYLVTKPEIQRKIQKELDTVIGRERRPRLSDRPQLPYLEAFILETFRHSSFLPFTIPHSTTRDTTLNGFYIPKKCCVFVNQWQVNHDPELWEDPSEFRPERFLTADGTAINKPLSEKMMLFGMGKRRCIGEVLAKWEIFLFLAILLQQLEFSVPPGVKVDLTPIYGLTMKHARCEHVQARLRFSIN
Measurement name: AC50

compound="CCN1CCCC1CNC(=O)CSCc1nc(-c2ccccc2C)oc1C (stereo unspecified)" assayed_system="Cytochrome P450 1A2 (Homo sapiens, UniProt P05177)" obs_value="39.8 µM (inconclusive)"
compound=COc1ccc(-n2cnc3sc(-c4ccccc4)cc3c2=O)cc1 assayed_system="Cytochrome P450 1A2 (Homo sapiens, UniProt P05177)" obs_value="3.55 µM (inconclusive)"
compound=COc1ccc(OC)c(NC(=O)CSCc2cnn(-c3ccccc3)c2-n2cccc2)c1 assayed_system="Cytochrome P450 1A2 (Homo sapiens, UniProt P05177)" obs_value="25.1 µM (inconclusive)"
compound=Cc1ccc(/N=C/c2nc(/C=C/c3cccc([N+](=O)[O-])c3)oc2O)cc1 assayed_system="Cytochrome P450 1A2 (Homo sapiens, UniProt P05177)" obs_value="2 µM (inconclusive)"
compound=O=c1oc2c(Cl)cc(Cl)cc2cc1-c1nnc(Nc2ccccc2F)s1 assayed_system="Cytochrome P450 1A2 (Homo sapiens, UniProt P05177)" obs_value="15.8 µM (inconclusive)"
compound=CCNc1ncc2nc(-c3ccc(F)cc3)c(=O)n(-c3ccccc3)c2n1 assayed_system="Cytochrome P450 1A2 (Homo sapiens, UniProt P05177)" obs_value="0.398 µM (inconclusive)"
compound=COC(=O)c1cc(Br)c(=O)n(CCc2ccc(O)cc2)c1 assayed_system="Cytochrome P450 1A2 (Homo sapiens, UniProt P05177)" obs_value="10 µM (inconclusive)"
compound=CCNc1ncc2nc(-c3ccc(OC)cc3)c(=O)n(Cc3cccs3)c2n1 assayed_system="Cytochrome P450 1A2 (Homo sapiens, UniProt P05177)" obs_value="0.631 µM (inconclusive)"
compound=CCOC(=O)c1c(NC(=O)c2ccc(S(=O)(=O)N3CCOCC3)cc2)sc2c1CCN(C)C2 assayed_system="Cytochrome P450 1A2 (Homo sapiens, UniProt P05177)" obs_value="12.6 µM (inconclusive)"
compound="O=C1C2C3C=CC(CC3)C2C(=O)N1/N=C/c1ccccc1O (stereo unspecified)" assayed_system="Cytochrome P450 1A2 (Homo sapiens, UniProt P05177)" obs_value="1.78 µM (inconclusive)"
compound="COc1ccccc1C(c1nnnn1C(C)(C)C)N1CCN(Cc2ccncc2)CC1 (stereo unspecified)" assayed_system="Cytochrome P450 1A2 (Homo sapiens, UniProt P05177)" obs_value="25.1 µM (inconclusive)"

====

Assay: Luminescence Cell-Based Dose Retest to Confirm Inhibitors of Cancer Stem Cells. [Related pubchem assays (depositor defined):AID2717, AID2721]
Assay type: functional
Conditions: Homo sapiens
Activity calls are given as the source filed them.
# AC50 listing for each entry below
Measurement name: AC50

smiles_str=CCCSc1nsc(NC(=O)Nc2ccc(F)cc2F)n1 measurement_name=AC50 obs_value="2.95 µM (active)"
smiles_str=COC(=O)c1sc2nc(N3CCCCC3)c3c(c2c1N)CCCC3 measurement_name=AC50 obs_value="2.95 µM (active)"
smiles_str=O=C(NC(=S)Nc1cccc(Cl)c1N1CCCCC1)c1ccc2c(c1)OCCO2 measurement_name=AC50 obs_value="0.707 µM (active)"
smiles_str=Cc1ccc(-c2ccc([C@H]3[C@@H]4C=CCC[C@@]4(C)C(=O)N3Cc3ccccc3)c(F)c2)cc1 measurement_name=AC50 obs_value="3.55 µM (active)"

====

Here the recorded AC50 is given for each entry.
Test: P. falciparum Dd2 growth inhibitors, dose response, SYBR Green, cherry-picked samples (AID 1159567)
Format: functional, cell-based
The source made the active and inactive calls.
Measurement name: AC50

smiles_str=COc1ccc(-c2ccc([C@@H]3[C@H]4CNC[C@@H]3N4C(=O)Nc3ccc(C(F)(F)F)cc3)cc2)cc1 measurement_name=AC50 obs_value="15 µM (active)"
smiles_str=COc1ccc(C#Cc2ccc3c(c2)O[C@@H](CN(C)S(=O)(=O)c2ccccc2F)[C@@H](C)CN([C@@H](C)CO)S3(=O)=O)cc1 measurement_name=AC50 obs_value="2.65 µM (active)"
smiles_str=CO[C@H]1CN(C)C(=O)c2cc(NC(=O)C3CC3)ccc2OC[C@H](C)N(Cc2cccc(F)c2)C[C@H]1C measurement_name=AC50 obs_value="6.05 µM (active)"
smiles_str=CCCNC(=O)N1[C@H](C#N)[C@H](c2ccc(-c3ccccc3F)cc2)[C@H]1CO measurement_name=AC50 obs_value="< 0.35 µM (active)"
